Target Desc: human GLP-1R (Homo sapiens)
Protocol Details: Human GLP-1 Receptor HEK293 cell cAMP assay, 581 fmol/mg GLP-1R expression density
Type: cell-based
Design: expressed in transfected cells; host or cells: HEK293 clonal cell line
Measurement Conditions: HEK293 cell line with 581 fmol/mg expression density of GLP-1R; geometric mean; read-out: EC50 nM (SEM, n), intracellular cAMP response, relative EC50
Threshold check on EC50: strictly below 50 nM is Fulfilled; on or above 50 nM is Not fulfilled.

COc1cc(C(=O)O)cc2c1nc(Cc1cc(C)c3cc1OCCCc1nc(C(F)(F)F)ccc1COc1cccc-3n1)n2C[C@@H]1CCO1 = Fulfilled
COCCOc1cc(C(=O)O)cc2c1nc(Cc1ccc3cc1COCC(F)(F)c1cc(C#N)ccc1COc1cccc-3n1)n2C[C@@H]1CCO1 = Fulfilled
O=C(O)c1ccc2nc(Cc3ccc4cc3OCCCc3cc(-n5ccc(=O)c(F)c5)ccc3COc3cccc-4n3)n(C[C@@H]3CCO3)c2c1 = Not fulfilled
COCCOc1cc(C(=O)O)cc2c1nc(Cc1cc(F)c3cc1COCCc1cc(ccc1C#N)COc1cccc-3n1)n2C[C@@H]1CCO1 = Fulfilled
Cc1nc(CCOc2cc(C(=O)O)cc3c2nc(Cc2ccc4cc2OCCCc2cc(C#N)ccc2COc2cccc-4n2)n3C[C@@H]2CCO2)co1 = Not fulfilled

Could you please tell me whether EC50 recorded for `N#Cc1ccc2c(c1)CCCOc1cc(ccc1Cc1nc3c(OCCNCC(F)(F)F)cc(C(=O)O)cc3n1C[C@@H]1CCO1)-c1cccc(n1)OC2` is less than 50 nM?
Not fulfilled

Could you please tell me whether EC50 recorded for `COc1cc(C(=O)O)cc2c1nc(Cc1cc(C)c3cc1OCCCc1cc(C(F)(F)F)ccc1COc1cccc-3n1)n2C[C@@H]1CCO1` is less than 50 nM?
Fulfilled

Could you please tell me whether EC50 recorded for `COCCOc1cc(C(=O)O)cc2c1nc(Cc1cc(F)c3cc1COCc1cc(-c4ccc(=O)n(C)c4)ccc1COc1cccc-3n1)n2C[C@@H]1CCO1` is less than 50 nM?
Fulfilled

Could you please tell me whether EC50 recorded for `Cn1ccc(-c2ccc3c(c2)CCCOc2cc(ccc2Cc2nc4ccc(C(=O)O)cc4n2C[C@@H]2CCO2)-c2cccc(n2)OC3)cc1=O` is less than 50 nM?
Not fulfilled

Could you please tell me whether EC50 recorded for `COc1cc(C(=O)O)cc2c1nc(Cc1cc(C)c3cc1OCCCc1cc(C#N)ccc1COc1cccc-3c1)n2C[C@@H]1CCO1` is less than 50 nM?
Fulfilled

Could you please tell me whether EC50 recorded for `N#Cc1ccc2c(c1)CCCOc1cc(c(F)cc1Cc1nc3ccc(C(=O)O)cc3n1C[C@@H]1CCO1)-c1cccc(n1)NC2` is less than 50 nM?
Not fulfilled

Could you please tell me whether EC50 recorded for `N#Cc1ccc2c(c1)OCCOc1cc(c(F)cc1Cc1nc3ccc(C(=O)O)cc3n1C[C@@H]1CCO1)-c1cccc(n1)OC2` is less than 50 nM?
Not fulfilled

---

Target Desc: human GLP-1R (Homo sapiens, UniProt P43220)
Sequence (P43220 24-463): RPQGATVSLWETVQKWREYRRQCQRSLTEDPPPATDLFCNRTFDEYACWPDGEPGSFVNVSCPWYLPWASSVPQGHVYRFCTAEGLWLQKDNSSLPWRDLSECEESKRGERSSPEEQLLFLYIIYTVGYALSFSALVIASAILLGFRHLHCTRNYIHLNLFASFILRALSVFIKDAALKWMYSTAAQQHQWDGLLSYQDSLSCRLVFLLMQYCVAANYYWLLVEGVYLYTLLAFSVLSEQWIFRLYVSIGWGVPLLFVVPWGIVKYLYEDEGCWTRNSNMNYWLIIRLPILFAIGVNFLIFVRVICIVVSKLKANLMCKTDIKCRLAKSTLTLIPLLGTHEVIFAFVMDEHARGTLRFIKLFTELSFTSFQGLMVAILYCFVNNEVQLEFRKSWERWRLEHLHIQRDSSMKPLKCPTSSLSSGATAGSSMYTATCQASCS
Protocol Details: Human GLP-1 Receptor HEK293 cell cAMP assay, 104 fmol/mg GLP-1R expression density
Format: cell-based
Parameters: expressed in transfected cells; host or cells: HEK293 clonal cell line
Measurement Conditions: HEK293 cell line with 104 fmol/mg expression density of GLP-1R; geometric mean; read-out: EC50 nM (SEM, n), intracellular cAMP response, relative EC50
EC50 values, listed per item
Only the number, expressed in nM, is required.

See these solved cases before continuing.
Cn1cc(-c2ccc3c(c2)CCCOc2cc(ccc2Cc2nc4ccc(C(=O)O)cc4n2C[C@@H]2CCO2)-c2cccc(n2)OC3)ccc1=O = 149
COc1cc(C(=O)O)cc2c1nc(Cc1cc(C)c3cc1OCCCc1cc(C#N)ccc1COc1cccc-3n1)n2C[C@@H]1CCO1 = 5.44
O=C(O)c1ccc2nc(Cc3ccc4cc3OCCCc3cc(Br)ccc3COc3cccc-4n3)n(C[C@@H]3CCO3)c2c1 = 169

Name the recorded EC50 of the item `COCCOc1cc(C(=O)O)cc2c1nc(Cc1cc(F)c3cc1COCCc1cc(ccc1C#N)COc1cccc-3n1)n2C[C@@H]1CCO1` in your answer.
1.62

Name the recorded EC50 of the item `O=C(O)c1ccc2nc(Cc3ccc4cc3OCCCc3cc(-n5ccc(=O)cc5)ccc3COc3cccc-4n3)n(C[C@@H]3CCO3)c2c1` in your answer.
533

Name the recorded EC50 of the item `CCn1cncc1Cn1c(Cc2ccc3cc2OCCCc2cc(C#N)ccc2COc2cccc-3n2)nc2c(OC)cc(C(=O)O)cc21` in your answer.
112

---

Emax values, listed per item
Target Desc: human GLP-1R (Homo sapiens, UniProt P43220)
Protocol Details: Human GLP-1 Receptor HEK293 cell cAMP assay, 104 fmol/mg GLP-1R expression density
Type: cell-based
Design: expressed in transfected cells; host or cells: HEK293 clonal cell line
Measurement Conditions: HEK293 cell line with 104 fmol/mg expression density of GLP-1R; percent of maximal response to GLP-1(7-36)NH2; arithmetic mean; read-out: Emax % (SEM, n), intracellular cAMP response
Only the number, expressed in %, is required.

See these solved cases before continuing.
CNC(=O)c1ccc(-c2ccc3c(c2)CCCOc2cc(ccc2Cc2nc4ccc(C(=O)O)cc4n2C[C@@H]2CCO2)-c2cccc(n2)OC3)cc1 [Example 38] = 56.9
N#Cc1ccc2c(c1)CCCOc1cc(ccc1Cc1nc3ccc(-c4nnn[nH]4)cc3n1C[C@@H]1CCO1)-c1cccc(n1)OC2 [Example 41] = 60.3

Name the recorded Emax of the item Nc1cc(-c2ccc3c(c2)CCCOc2cc(ccc2Cc2nc4ccc(C(=O)O)cc4n2C[C@@H]2CCO2)-c2cccc(n2)OC3)ccn1 [Example 78] in your answer.
74.1

---

EC50 values, listed per item
Target Desc: human GLP-1R (Homo sapiens)
Protocol Details: Human GLP-1 Receptor HEK293 cell cAMP assay, 581 fmol/mg GLP-1R expression density
Assay type: cell-based
Set-up: expressed in transfected cells; host or cells: HEK293 clonal cell line
Measurement Conditions: HEK293 cell line with 581 fmol/mg expression density of GLP-1R; geometric mean; read-out: EC50 nM (SEM, n), intracellular cAMP response, relative EC50
Only the number, expressed in nM, is required.

See these solved cases before continuing.
COc1cc(C(=O)O)cc2c1nc(Cc1ccc3cc1OCCCc1cc(C#N)ccc1COc1cccc-3n1)n2C[C@@H]1CCO1 = 6.58
O=C(O)c1ccc2nc(Cc3ccc4cc3OCCCc3cc(-n5ccc(=O)cc5)ccc3COc3cccc-4n3)n(C[C@@H]3CCO3)c2c1 = 155
N#Cc1ccc2c(c1)CCOCc1cc(ccc1Cc1nc3c(F)cc(C(=O)O)cc3n1C[C@@H]1CCO1)-c1cccc(n1)OC2 = 18.1
CS(=O)(=O)c1ccc(-c2ccc3c(c2)CCCOc2cc(ccc2Cc2nc4ccc(C(=O)O)cc4n2C[C@@H]2CCO2)-c2cccc(n2)OC3)cc1 = 40.8
COCCOc1cc(C(=O)O)cc2c1nc(Cc1ccc3cc1OCCCc1cc(C#N)ccc1COc1cccc-3n1)n2C[C@@H]1CCO1 = 2.34
COc1cc(-c2ccc3c(c2)CCCOc2cc(ccc2Cc2nc4ccc(C(=O)O)cc4n2C[C@@H]2CCO2)-c2cccc(n2)OC3)ccn1 = 167

Alright, here's another compound for you.
Would you please give the reported EC50 of `Cn1cc(-c2ccc3c(c2)CCCOc2cc(ccc2Cc2nc4ccc(C(=O)O)cc4n2C[C@@H]2CCO2)-c2cccc(n2)OC3)cn1` with human GLP-1R (Homo sapiens)?
42.4

---

Target Desc: human GLP-1R (Homo sapiens)
Protocol Details: Human GLP-1 Receptor HEK293 cell cAMP assay, 104 fmol/mg GLP-1R expression density
Type: cell-based
Design: expressed in transfected cells; host or cells: HEK293 clonal cell line
Measurement Conditions: HEK293 cell line with 104 fmol/mg expression density of GLP-1R; percent of maximal response to GLP-1(7-36)NH2; arithmetic mean; read-out: Emax % (SEM, n), intracellular cAMP response
Reported Property: Emax (%)
Only the number, expressed in %, is required.

O=C(O)c1ccc2nc(Cc3ccc4cc3OCCCc3cc(-n5cnc(F)c5)ccc3COc3cccc-4n3)n(C[C@@H]3CCO3)c2c1 = 82.5
O=C(O)c1ccc2nc(Cc3ccc4cc3OCCCc3cc(Cl)ccc3COc3cccc-4n3)n(C[C@@H]3CCO3)c2c1 = 84
COCCOc1cc(C(=O)O)cc2c1nc(Cc1cc(F)c3cc1COCCc1cc(Cl)cc(F)c1COc1cccc-3n1)n2C[C@@H]1CCO1 = 87.9
O=C(O)c1ccc2nc(Cc3ccc4cc3OCCCc3cc(-c5cccnc5)ccc3COc3cccc-4n3)n(C[C@@H]3CCO3)c2c1 = 79.7
N#Cc1ccc2c(c1)CCCOc1cc(ccc1Cc1nc3ccc(C(=O)O)cc3n1C[C@@H]1CCO1)-c1cccc(n1)OC2 = 78.7

Name the recorded Emax of the item CN1CCC(Oc2cc(C(=O)O)cc3c2nc(Cc2ccc4cc2OCCCc2cc(C#N)ccc2COc2cccc-4n2)n3C[C@@H]2CCO2)C1 (stereo partly drawn) in your answer.
48.4

Values from patent US20240343740A1
